- System: CCRF-CEM
- assay: Cytotoxicity in human CCRF-CEM cells by resazurin reduction assay
- Format: functional, cell-based
pIC50: −log10 of the molar value.
Reported pIC50 values for the following compounds.

smiles.entry: COc1cc(O)cc(OC)c1C(=O)/C=C/c1ccccc1
pIC50: ≥ 5.00
//
smiles.entry: COc1cc(O)cc(O)c1C(=O)/C=C/c1ccccc1
pIC50: ≥ 5.00
//
smiles.entry: COc1cc(O)c(OC)c(O)c1C(=O)/C=C/c1ccccc1
pIC50: ≥ 5.00
